System: basophils in whole blood from HDM allergic donors
Test: Basophil Activation Test (BAT)
Type: cell-based, human
Conditions: 1 ng/ml; blood from HDM allergic individuals (n=14)
Reported Endpoint: # of individuals of 14 with positive BAT test

[[record]]
molecule = "A022: house dust mite protein; SEQ ID NO: 19 (Der f), 20 (Der p), 317 (Blo t) (protein) NWQMVWQDEFNGGHLDQNHWEFETGGGGWGNNELEFYTANRSQNVRVENGHLVIDVRVESYGGRDFTSGRIHSKQAWAYGKFEARARLPSGHHLWPAIWMFPRDSKYGPWAASGEIDIMEYRGDVHDKIEGTIHYGGQWPNNIYTGSGPHHFNVDFSKDFHNFAVEWDTKEIRWYMDGNKYFSVNIDRNMWSGKGNNPYNKNGQPFDQPFRWILNVAVGGNFFGPGPYVTPDQARHWQKHTMEIDYVRVYQWR"
reading = 0


meta.source: patent US10556936B2
